Data credit: patent US20150344583A1

Target: T1, human BCMA (huBCMA) on cells (human, UniProt Q02223 1-184)
T1 construct: endogenous on H929, JD38 and other myeloma and B-cell lines and on patient plasma cells; also called native human BCMA
T1 chain: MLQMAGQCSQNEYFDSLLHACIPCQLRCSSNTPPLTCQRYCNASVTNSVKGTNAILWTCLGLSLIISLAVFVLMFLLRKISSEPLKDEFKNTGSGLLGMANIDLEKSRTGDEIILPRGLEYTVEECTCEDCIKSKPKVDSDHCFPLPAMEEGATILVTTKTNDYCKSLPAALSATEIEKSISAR
Test: FACS, hu BCMA
Endpoint: MFI (MFI)
Only the number, expressed in MFI, is required.

Given the entry 29C12 (antibody, V domains shown, IgG2 or IgG4 as purified from hybridoma (29C12.1); later converted to human IgG1; an engineered version may be meant there; also called 29C12.1; Ab-8) VH: EVQLLESGGALVQPGGSLRLSCAASGFTFSSYAMNWVRQAPGKGLEWVSAISVGGDTYYADSVKGRFTISRDNSKNTLYLQMNSLRAEDTAVYYCAKDQVTMVRGVWYYYGLDVWGQGTTVTVSS VL: DIVMIQSPLSLPVTPGEPASISCRSSQSLLHSNGNNYLDWYLQKPGQSPHLLISLGSNRTSGVPDRFSGSGSGTDFTLKISRVEAEDVGVYYCMQALQPPRRFGQGTKLEIKR , report its measured MFI.
82600
